- Test system: Gram-positive and Gram-negative bacteria
- protocol: In vitro antibacterial activity (general)
- Format: cell-based
observationType: bio-activity

compound="CCCC(=O)NC1C(CO)OC(OC(C(O)CN)C(N)C(O)CO)C(O)C1O (stereo not shown) [Bu-2183 A2]" observedvalue=bio-active
compound="CC(=O)NC1C(CO)OC(OC(C(O)CN)C(N)C(O)CO)C(O)C1O (stereo not shown) [Bu-2183 B]" observedvalue=bio-active
compound="CCC(=O)NC1C(CO)OC(OC(C(O)CN)C(N)C(O)CO)C(O)C1O (stereo not shown) [Bu-2183 A]" observedvalue=bio-active

---

- protocol: Titration in water
- Type: physicochemical
- experimentalContext: read-out: pKa' (second value)
observationType: pKa

compound="CCC(=O)NC1C(CO)OC(OC(C(O)CN)C(N)C(O)CO)C(O)C1O (stereo not drawn) [Bu-2183 A]" observationtype=pKa observedvalue=9.4
compound="NC[C@H](O)[C@@H](O[C@H]1O[C@H](CO)[C@@H](N)[C@H](O)[C@H]1O)[C@H](N)[C@H](O)CO [Bu-2183 D]" observationtype=pKa observedvalue=9.68
compound="CC(=O)NC1C(CO)OC(OC(C(O)CN)C(N)C(O)CO)C(O)C1O (stereo not drawn) [Bu-2183 B]" observationtype=pKa observedvalue=9.35

---

- protocol: in vivo
- experimentalContext: mouse, in vivo, sc
observationType: LD50 at 360 h (mg/kg)

compound="CCC(=O)NC1C(CO)OC(OC(C(O)CN)C(N)C(O)CO)C(O)C1O (stereo not shown) [Bu-2183 A]" observedvalue=1000

---

- protocol: Titration in water
- Format: physicochemical
- experimentalContext: read-out: pKa' (first value)
observationType: pKa

molecule="CC(=O)NC1C(CO)OC(OC(C(O)CN)C(N)C(O)CO)C(O)C1O (stereo not drawn)" observedvalue=7.15
molecule="CCC(=O)NC1C(CO)OC(OC(C(O)CN)C(N)C(O)CO)C(O)C1O (stereo not drawn)" observedvalue=6.9
molecule=NC[C@H](O)[C@@H](O[C@H]1O[C@H](CO)[C@@H](N)[C@H](O)[C@H]1O)[C@H](N)[C@H](O)CO observedvalue=6.95

---

- protocol: Solubility
- Type: physicochemical
- experimentalContext: base; n-butanol, acetone and other common organic solvents
observationType: solubility in n-butanol, acetone and other common organic solvents

compound="CC(=O)NC1C(CO)OC(OC(C(O)CN)C(N)C(O)CO)C(O)C1O (stereo not shown) [Bu-2183 B]" observedvalue="practically insoluble"
compound="CCCC(=O)NC1C(CO)OC(OC(C(O)CN)C(N)C(O)CO)C(O)C1O (stereo not shown) [Bu-2183 A2]" observedvalue="practically insoluble"
compound="NC[C@H](O)[C@@H](O[C@H]1O[C@H](CO)[C@@H](N)[C@H](O)[C@H]1O)[C@H](N)[C@H](O)CO [Bu-2183 D]" observedvalue="practically insoluble"
compound="CCC(=O)NC1C(CO)OC(OC(C(O)CN)C(N)C(O)CO)C(O)C1O (stereo not shown) [Bu-2183 A]" observedvalue="practically insoluble"

Cited source for all entries: patent US4012576A
